target: HA-GST-Rheb (GTP-γ-S loaded) activating mTORC1 (Homo sapiens (Human)); assay: Rheb-dependent in vitro kinase assay (Rheb-IVK; LanthaScreen or Western readout); format: biochemical; conditions: Rheb-dependent in vitro kinase assay; read-out: IVK IC50
pIC50: −log10 of the molar value.
assay_endpoint: pIC50

Past entries and their recorded results:
- O=C(O)c1cc2c(Sc3ccc(Cl)cc3)cc(Cl)cc2[nH]1: 4.00 to 5.00
- Clc1ccc(Sc2cccc3cc[nH]c23)cc1: < 4.00
- CCOCc1nc2cc(OCc3ccccc3)cc(Cl)c2n1CC: < 4.00

Enquiry: Param item = `CCn1c(CO)nc2cc(OCCc3ccccc3)c(Cl)cc21` ; retrieve measured pIC50.
Return: < 4.00

Enquiry: Param item = `CN(C)C(=O)c1ccc(Cn2c(C(=O)O)cc3c(Br)cc(Sc4ccc(Cl)c(Cl)c4)cc32)cc1` ; retrieve measured pIC50.
Return: > 5.00

Enquiry: Param item = OCC(O)c1nc2c(OCC3CCCCC3)c(Cl)c(Cl)cc2[nH]1 (stereo not drawn) ; retrieve measured pIC50.
Return: 4.00 to 5.00

---

Listed compounds paired with reported pIC50
target: HA-GST-Rheb (GTP-γ-S loaded) activating mTORC1 (Homo sapiens (Human), UniProt Q15382); test: Rheb-dependent in vitro kinase assay (Rheb-IVK; LanthaScreen or Western readout); type: biochemical; conditions: Rheb-dependent in vitro kinase assay; read-out: IVK IC50
Sequence (Q15382 1-181): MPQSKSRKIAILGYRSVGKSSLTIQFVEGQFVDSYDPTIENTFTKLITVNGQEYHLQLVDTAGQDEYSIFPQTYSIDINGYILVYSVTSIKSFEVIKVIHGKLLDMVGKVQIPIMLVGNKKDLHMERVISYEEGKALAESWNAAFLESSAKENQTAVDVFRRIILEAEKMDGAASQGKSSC
pIC50: −log10 of the molar value.

Past entries and their recorded results:
- CN(C)C(=O)c1ccc(Cn2c(C(=O)O)cc3c(Cl)nc(Sc4ccc(Cl)c(Cl)c4)cc32)cc1: 4.00 to 5.00
- O=C(Nc1ccc(N2CCN(Cc3ccccc3)CC2)c(F)c1)c1cc2c(Sc3ccc(Cl)cc3Cl)cc(Cl)cc2[nH]1: 4.00 to 5.00

Enquiry: Param item = `CN(C)C(=O)c1ccc(Cn2c(C(=O)O)cc3c(Sc4cccc(OC(F)(F)F)c4)cc(Sc4cccc(OC(F)(F)F)c4)cc32)cc1` ; retrieve measured pIC50.
Return: > 5.00

---

molecular target: HA-GST-Rheb (GTP-γ-S loaded) activating mTORC1 (Homo sapiens (Human), UniProt Q15382); assay: Rheb-dependent in vitro kinase assay (Rheb-IVK; LanthaScreen or Western readout); assay type: biochemical; conditions: Rheb-dependent in vitro kinase assay; read-out: IVK IC50
pIC50: −log10 of the molar value.
Listed compounds paired with reported pIC50

Past entries and their recorded results:
• Cn1c(C(=O)O)cc2c(Sc3ccc(Cl)cc3)cc(Cl)cc21 = 4.00 to 5.00
• Cc1cc(Oc2ccccc2)cc2[nH]c(CO)cc12 = < 4.00

// next item, pIC50 requested
Enquiry: Which pIC50 is reported with HA-GST-Rheb (GTP-γ-S loaded) activating mTORC1 (Homo sapiens (Human), UniProt Q15382) for this entry: `Cn1ccc2c(Oc3cccc(Cl)c3)cccc21` ?
Return: < 4.00

---

Listed molecules paired with reported IC50
molecular target: HA-GST-Rheb (GTP-γ-S loaded) activating mTORC1 (Homo sapiens (Human), UniProt Q15382); test: Rheb-dependent in vitro kinase assay (Rheb-IVK; LanthaScreen or Western readout); type: biochemical; conditions: Rheb-dependent in vitro kinase assay; read-out: IVK IC50

Enquiry: Param item = `OCc1cc2c(Oc3cccc(Cl)c3)cc(Cl)cc2[nH]1` ; retrieve measured IC50.
Return: 10 to 100 µM

Enquiry: Param item = `CN1CCN(c2cccc(-c3nc4cc(Cl)c(Cl)cc4[nH]3)c2)CC1` ; retrieve measured IC50.
Return: > 100 µM

Enquiry: Param item = `OCc1cc2c(Oc3cc(Cl)ccc3Cl)cc(Cl)cc2[nH]1` ; retrieve measured IC50.
Return: 10 to 100 µM
